The measured values listed here are drawn from paper PMC10975434.

Assay: Estimated unbound maximum hepatic inlet concentration used for the static model
Details: read-out: Cmax,hepatic inlet,u; CBD dose 700 mg, Oral; estimated from Cmax of Bansal et al., 2022 [56]
PARAMETER: Cmax
# output: numeric value plus its unit

Input C=C(C)[C@@H]1CCC(CO)=C[C@H]1c1c(O)cc(CCCCC)cc1O [7-OH-CBD, 7-hydroxy-cannabidiol] . Output Cmax: 340 nM

====

Test: Estimated unbound maximum hepatic inlet concentration used for the static model
Conditions: read-out: Cmax,hepatic inlet,u; CBD dose 2000 mg, Oral; estimated from Cmax of Bansal et al., 2022 [56]
PARAMETER: Cmax (µM)
Give a bare numeral; the unit µM is implied.

Entry C=C(C)[C@@H]1CCC(CO)=C[C@H]1c1c(O)cc(CCCCC)cc1O [7-OH-CBD, 7-hydroxy-cannabidiol] — recorded Cmax = 0.98

====

Molecular target: UGT2B7 (Homo sapiens, UniProt P16662)
Sequence (P16662 24-529): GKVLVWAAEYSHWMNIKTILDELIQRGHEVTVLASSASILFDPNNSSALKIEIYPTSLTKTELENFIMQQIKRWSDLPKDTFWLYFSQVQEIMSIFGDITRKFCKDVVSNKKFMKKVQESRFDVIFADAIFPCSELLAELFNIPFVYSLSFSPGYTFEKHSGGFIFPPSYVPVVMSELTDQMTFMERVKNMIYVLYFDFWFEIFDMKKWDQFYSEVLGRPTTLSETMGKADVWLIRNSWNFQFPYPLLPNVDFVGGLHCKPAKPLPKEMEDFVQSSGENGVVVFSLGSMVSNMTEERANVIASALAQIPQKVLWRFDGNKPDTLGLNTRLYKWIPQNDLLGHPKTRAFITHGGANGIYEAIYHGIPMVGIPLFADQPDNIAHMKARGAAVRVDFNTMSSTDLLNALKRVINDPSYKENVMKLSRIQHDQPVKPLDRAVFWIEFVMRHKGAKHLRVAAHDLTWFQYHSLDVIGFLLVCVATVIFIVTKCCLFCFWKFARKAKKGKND
Experiment: Inhibition screening of morphine glucuronidation in pooled human liver microsomes (HLM)
Conditions: 100 µM cannabinoid
PARAMETER: inhibition of M3G and M6G formation in HLM (in words)

MOLECULE: C=C(C)[C@@H]1CCC(CO)=C[C@H]1c1c(O)cc(CCCCC)cc1O [7-OH-CBD, 7-hydroxy-cannabidiol]
TEST RESULT: significant inhibition
//
MOLECULE: CCCCCc1cc(O)c2c(c1)OC(C)(C)[C@@H]1CCC(C)=C[C@@H]21 [THC, Δ^9-tetrahydrocannabinol, reference compound]
TEST RESULT: significant inhibition
//
MOLECULE: C=C(C)[C@@H]1CCC(C)=C[C@H]1c1c(O)cc(CCCCC)cc1O [CBD, cannabidiol, reference compound]
TEST RESULT: significant inhibition

====

Target: UniProt:P16662
Assay: IC50 determination and calculated Ki, morphine glucuronidation in HLM
Conditions: human, human liver microsomes, probe morphine […] (morphine-3-glucuronide formation), Calculated Ki, Morphine-3-Glucuronide, Ki=IC50/2 assuming competitive inhibition
PARAMETER: pKi
Scale: pKi equals -log10([C]), with [C] in mol/L.

Query C=C(C)[C@@H]1CCC(C)=C[C@H]1c1c(O)cc(CCCCC)cc1O [CBD, cannabidiol, reference compound] yields pKi of 5.39

====

Documented pKi across a set of compounds
Molecular target: UGT2B7 (Homo sapiens, UniProt P16662)
Experiment: IC50 determination and calculated Ki, morphine glucuronidation in HLM
Conditions: read-out: Calculated Ki, Morphine-3-Glucuronide, Ki=IC50/2 assuming competitive inhibition
pKi (log units): -log10 of the concentration in mol/L.

Consider the following illustrative entries.
COMPOUND: CCCCCc1cc(O)c2c(c1)OC(C)(C)[C@@H]1CCC(C(=O)O)=C[C@@H]21 [11-COOH-THC]
pKi: 4.04
//
COMPOUND: CCCCCc1cc(O)c2c(c1)OC(C)(C)[C@@H]1CCC(C)=C[C@@H]21 [THC, Δ^9-tetrahydrocannabinol, reference compound]
pKi: 4.91

// moving on: another record for pKi
Measured pKi, C=C(C)[C@@H]1CCC(CO)=C[C@H]1c1c(O)cc(CCCCC)cc1O [7-OH-CBD, 7-hydroxy-cannabidiol] : 5.07
